Test system: JAK1(JH1domain-catalytic);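 also: KINOMEscan kinase panel screen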
Conditions: concentration: 1 μM, replicates: in singlicate; n = 1
metric: %Inh (%)
Kindly provide the numeric value in % only, without the unit symbol.

INSERT INTO measurements (smiles_str, quantitative_result) VALUES
  ('c1ccc(-c2cnc3nccnn23)cc1', 0),
  ('CN(C)Cc1ccc(-c2ccc3c(Nc4ccc(Oc5ccccn5)cc4)ccnc3c2)o1', 0),
  ('COc1cc(Nc2ncc3c(C)nc(-c4cc5ccccc5[nH]4)n3n2)cc(OC)c1OC', 0);

Query: Please give the measured %Inh for this molecule: `CNC(=O)c1ccccc1Nc1nc(Nc2ccc(N3CCOCC3)cc2)ncc1Cl.Cl`
Result: 97.6
